# target-system: T1, Recombinant human CD4 (R&D Systems, Cat. 10327-CD) (human, UniProt P01730 26-390, limits assumed)
# T1 construct: Bought protein; also called huCD4
# experimental-protocol: BLI (Octet Red384), purified antibody on anti-mouse Fc sensors, human CD4 100/50/25 nM, global 1:1 fit;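 note: antibodies loaded at 10 µg/mL, curves fitted across association and dissociation phases, with an unrelated mouse-derived antibody serving as internal reference control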
quantity-kind: Response
Could you keep your reply to the number by itself?

// solved cases for Response follow
{"columns": ["binder", "value-measured"],
 "data": [
  ["75110_12K21A (antibody, V domains shown, Tested as antibody purified from AlivaMab Mouse Kappa hybridoma (human V regions, kappa light chain, mouse Fc captured by anti-mouse Fc sensors)) VH: QVQLQQWGAGLLKPSETLSLTCAVSGGSFSGYYWSWIRQPPGKGLEWIGEINHSGSTNCNPSLKSRVTISVDTSNNQFSLKLSSVTAADTAVYYCARVLNYFDYWGQGTLVTVSS VL: DIQMTQSPSSVSASVGDRVTITCRASPDIANWLAWYQQKPGKAPELLIYAASSLQSGVPSRFSGSGSGTDFTLTISSLQPEDFATYFCQQANSFPLTFGGGTKVESK", 0.22],
  ["75110_08H06A (antibody, V domains shown, Tested as antibody purified from AlivaMab Mouse Kappa hybridoma (human V regions, kappa light chain, mouse Fc captured by anti-mouse Fc sensors)) VH: EVQLVESGGGLVQPGGSLRLSCAASGFTFSNYDMHWVRQATGKGLEWVSTIGTAGDTYYPGSVKGRFTISRENAKNSLYLQMNSLRAGDTAVYYCARGGYDYYGMDVWGQGTTVTVSS VL: EIVLTQSPGTLSLSPGERATLSCRASQSITSIYLAWYRQKPGQAPRLLIYGASSRATGIPDRFSGSGSGTDFTLTISRLEPEDFAVYYCQQYGSSPFTFGPGTKVDIK", 0.04]
]}

# next binder below
For 75110_13P21A (antibody, V domains shown, Tested as antibody purified from AlivaMab Mouse Kappa hybridoma (human V regions, kappa light chain, mouse Fc captured by anti-mouse Fc sensors)) VH: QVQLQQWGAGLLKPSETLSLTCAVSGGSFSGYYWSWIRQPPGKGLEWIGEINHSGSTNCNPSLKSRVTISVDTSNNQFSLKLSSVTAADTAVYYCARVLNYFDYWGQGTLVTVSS VL: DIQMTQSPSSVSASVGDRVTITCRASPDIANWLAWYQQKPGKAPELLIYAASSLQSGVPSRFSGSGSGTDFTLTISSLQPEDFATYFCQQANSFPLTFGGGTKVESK , what is its reported Response?
0.17
